Catalogue of molecules with associated AC50
# Tgt: Melanocortin receptor 3 (Homo sapiens, UniProt P41968)
# Sequence (P41968 whole entry): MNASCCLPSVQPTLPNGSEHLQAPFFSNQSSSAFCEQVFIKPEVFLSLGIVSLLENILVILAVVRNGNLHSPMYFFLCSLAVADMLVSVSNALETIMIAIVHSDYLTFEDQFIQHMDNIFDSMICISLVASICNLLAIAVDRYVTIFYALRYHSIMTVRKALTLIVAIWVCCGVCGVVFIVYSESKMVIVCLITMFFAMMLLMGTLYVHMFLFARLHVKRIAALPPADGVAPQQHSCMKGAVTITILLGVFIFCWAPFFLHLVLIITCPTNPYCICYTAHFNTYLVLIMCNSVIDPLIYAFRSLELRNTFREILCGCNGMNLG

Below are worked cases with known answers.
Molecule: Clc1ccc(Cn2c(CN3CCCC3)nc3ccccc32)cc1 [CLEMIZOLE]
AC50: > 30 µM
--
Molecule: C[N+]1(C)CCC(=C(c2ccccc2)c2ccccc2)CC1
AC50: > 30 µM
--
Molecule: CN1Cc2c(N)cccc2C(c2ccccc2)C1 (centres undefined) [NOMIFENSINE]
AC50: > 30 µM
--
Molecule: CNC[C@H](O)c1ccc(O)c(O)c1 [EPINEPHRINE]
AC50: > 30 µM
--
Molecule: O=C(/C=C/c1cccc(S(=O)(=O)Nc2ccccc2)c1)NO [BELINOSTAT]
AC50: > 30 µM
--
Molecule: CC(C(=O)O)c1ccc2oc(-c3ccc(Cl)cc3)nc2c1 (centres undefined) [BENOXAPROFEN]
AC50: > 30 µM
--
Molecule: COc1cc(C(=O)NC2CCCNC2)cc(OC)c1OC (centres undefined) [TROXIPIDE]
AC50: > 30 µM
--
Molecule: COc1ccc2cc(CCC(C)=O)ccc2c1 [NABUMETONE]
AC50: > 10 µM
--
Molecule: O=C1c2cccc3c2[C@H](CCC3)CN1[C@@H]1CN2CCC1CC2 [PALONOSETRON]
AC50: > 30 µM
--
Molecule: O=S1(=O)CCN(CN2CCS(=O)(=O)NC2)CN1 [TAUROLIDINE]
AC50: > 30 µM

So for COc1cc(C(C)=O)ccc1OCCCN1CCC(c2noc3cc(F)ccc23)CC1 [ILOPERIDONE] , the logged AC50 turned out to be > 30 µM

* * *

# Tgt: Alpha-2A adrenergic receptor (Homo sapiens)
# Sequence (P08913 whole entry): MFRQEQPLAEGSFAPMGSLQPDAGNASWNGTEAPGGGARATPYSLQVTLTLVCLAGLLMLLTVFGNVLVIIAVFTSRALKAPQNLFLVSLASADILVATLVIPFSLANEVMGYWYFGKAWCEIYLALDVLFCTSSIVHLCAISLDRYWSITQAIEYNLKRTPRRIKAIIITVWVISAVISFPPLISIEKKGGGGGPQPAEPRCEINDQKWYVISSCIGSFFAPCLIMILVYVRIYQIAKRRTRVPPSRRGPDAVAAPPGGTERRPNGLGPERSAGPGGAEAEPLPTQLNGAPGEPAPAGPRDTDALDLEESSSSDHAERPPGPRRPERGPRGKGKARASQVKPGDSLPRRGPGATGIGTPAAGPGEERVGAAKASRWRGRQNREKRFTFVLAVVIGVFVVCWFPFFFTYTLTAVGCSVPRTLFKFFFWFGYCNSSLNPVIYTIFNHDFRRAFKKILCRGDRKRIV
# Format: functional, cell-based
Measured Endpoint: AC50

Below are worked cases with known answers.
Compound: CC(=O)Nc1ccc(CC(=O)O)cc1
AC50: > 30 µM
//
Compound: CC=CC1=C(C(=O)O)N2C(=O)[C@@H](NC(=O)[C@H](N)c3ccc(O)cc3)[C@H]2SC1
AC50: > 30 µM
//
Compound: CC(C)C[C@H](NC(=O)[C@@H](O)[C@H](N)Cc1ccccc1)C(=O)O
AC50: > 30 µM
//
Compound: O=C(O)c1ccc(NC(=O)[C@H](Cc2ccc(O)cc2)NC(=O)c2ccccc2)cc1 [BENTIROMIDE]
AC50: > 10 µM
//
Compound: CC(C)Cc1ccc([C@H](C)C(=O)O)cc1
AC50: > 30 µM
//
Compound: CCCc1nc2c(C)cc(-c3nc4ccccc4n3C)cc2n1Cc1ccc(-c2ccccc2C(=O)O)cc1
AC50: > 30 µM

So for CC1=C(C(=O)OC(C)C)C(c2cccc([N+](=O)[O-])c2)C(C(=O)OC2CN(C(c3ccccc3)c3ccccc3)C2)=C(N)N1 (configuration not stated) , the logged AC50 turned out to be > 30 µM

So for O=C1OC(OC(=O)c2cccnc2Nc2cccc(C(F)(F)F)c2)c2ccccc21 (configuration not stated) [TALNIFLUMATE] , the logged AC50 turned out to be > 30 µM

So for CO/N=C(\C(=O)N[C@@H]1C(=O)N2C(C(=O)O)=CCS[C@H]12)c1csc(N)n1 , the logged AC50 turned out to be > 30 µM

So for Oc1ccc(CCNCCCCCCNCCc2ccccc2)cc1O , the logged AC50 turned out to be > 30 µM

So for CC(C)NC[C@H](O)COc1ccc(CC(N)=O)cc1 , the logged AC50 turned out to be > 10 µM

So for Cc1ccnc2c1NC(=O)c1cccnc1N2C1CC1 , the logged AC50 turned out to be > 10 µM

* * *

Read-out record for Gamma-aminobutyric acid type B receptor subunit 1 (Homo sapiens): AC50

Below are worked cases with known answers.
Compound: COc1cc(N)c(Cl)cc1C(=O)NC1CCN(CCCOc2ccc(F)cc2)CC1OC (configuration not stated) [CISAPRIDE]
AC50: > 10 µM

Compound: CCCc1nc2c(C)cc(-c3nc4ccccc4n3C)cc2n1Cc1ccc(-c2ccccc2C(=O)O)cc1
AC50: > 10 µM

Compound: Cc1ccc(C)c(OCCCC(C)(C)C(=O)O)c1
AC50: > 10 µM

Compound: CC(O)(CS(=O)(=O)c1ccc(F)cc1)C(=O)Nc1ccc(C#N)c(C(F)(F)F)c1 (configuration not stated) [BICALUTAMIDE]
AC50: > 10 µM

Compound: Fc1ccc([C@@H]2CCNC[C@H]2COc2ccc3c(c2)OCO3)cc1
AC50: > 10 µM

So for O=C(O)Cc1ccccc1Nc1c(Cl)cccc1Cl , the logged AC50 turned out to be > 10 µM

* * *

Catalogue of compounds with associated AC50
# Tgt: Estrogen receptor (Homo sapiens, UniProt P03372)
# Sequence (P03372 whole entry): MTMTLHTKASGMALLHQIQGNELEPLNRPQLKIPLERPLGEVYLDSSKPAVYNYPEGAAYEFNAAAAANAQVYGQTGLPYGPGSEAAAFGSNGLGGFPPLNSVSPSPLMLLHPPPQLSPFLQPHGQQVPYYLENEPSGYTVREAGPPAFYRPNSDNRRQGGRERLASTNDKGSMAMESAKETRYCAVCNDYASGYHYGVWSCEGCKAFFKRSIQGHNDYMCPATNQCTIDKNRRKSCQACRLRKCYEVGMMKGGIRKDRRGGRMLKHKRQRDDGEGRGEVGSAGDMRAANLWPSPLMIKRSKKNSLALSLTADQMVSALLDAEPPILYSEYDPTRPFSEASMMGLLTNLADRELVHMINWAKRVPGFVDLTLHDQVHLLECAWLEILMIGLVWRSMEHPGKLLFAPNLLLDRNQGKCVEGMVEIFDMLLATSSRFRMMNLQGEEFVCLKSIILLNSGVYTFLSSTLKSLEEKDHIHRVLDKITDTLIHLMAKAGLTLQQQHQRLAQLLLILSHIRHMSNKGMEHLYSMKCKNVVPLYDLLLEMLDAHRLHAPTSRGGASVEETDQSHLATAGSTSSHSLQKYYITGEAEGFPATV
# Assay type: functional

Below are worked cases with known answers.
Compound: CCCc1nc2c(C)cc(-c3nc4ccccc4n3C)cc2n1Cc1ccc(-c2ccccc2C(=O)O)cc1
AC50: > 30 µM
--
Compound: CCOC(=O)[C@@H](N)Cc1ccc(-c2cc(O[C@H](c3ccc(Cl)cc3-n3ccc(C)n3)C(F)(F)F)nc(N)n2)cc1 [TELOTRISTAT ETHYL]
AC50: > 30 µM
--
Compound: CC(C)(O/N=C(\C(=O)N[C@@H]1C(=O)N2C(C(=O)[O-])=C(C[n+]3ccccc3)CS[C@H]12)c1csc(N)n1)C(=O)O [CEFTAZIDIME]
AC50: > 300 µM

So for Cc1nnc(SCC2=C(C(=O)O)N3C(=O)[C@@H](NC(=O)Cn4cnnn4)[C@H]3SC2)s1 [CEFAZOLIN] , the logged AC50 turned out to be > 300 µM

So for S=P(N1CC1)(N1CC1)N1CC1 [THIOTEPA] , the logged AC50 turned out to be > 30 µM

So for CC(C)c1cccc(C(C)C)c1O [PROPOFOL] , the logged AC50 turned out to be > 30 µM

So for COc1cc(C(C)=O)ccc1OCCCN1CCC(c2noc3cc(F)ccc23)CC1 [ILOPERIDONE] , the logged AC50 turned out to be > 30 µM

So for CCOc1cc([C@@H](CS(C)(=O)=O)N2C(=O)c3cccc(NC(C)=O)c3C2=O)ccc1OC , the logged AC50 turned out to be > 30 µM

So for CCOc1nc2cccc(C(=O)O)c2n1Cc1ccc(-c2ccccc2-c2nnn[nH]2)cc1 , the logged AC50 turned out to be > 30 µM

So for CCC(=O)O[C@]1(C(=O)CCl)[C@@H](C)C[C@H]2[C@@H]3CCC4=CC(=O)C=C[C@]4(C)[C@@]3(F)[C@@H](O)C[C@@]21C [CLOBETASOL PROPIONATE] , the logged AC50 turned out to be > 30 µM

So for CNC[C@H](O)c1ccc(O)c(O)c1 [EPINEPHRINE] , the logged AC50 turned out to be > 30 µM

So for CC(C)Cc1ccc([C@H](C)C(=O)O)cc1 [DEXIBUPROFEN] , the logged AC50 turned out to be > 30 µM

* * *

Read-out record for Melanocortin receptor 3 (Homo sapiens): AC50

Molecule: CC(C)(Oc1ccc(CCNC(=O)c2ccc(Cl)cc2)cc1)C(=O)O [BEZAFIBRATE]
Reported Value: > 10 µM
--
Molecule: CC(CN1c2ccccc2Sc2ccccc21)N(C)C (stereo not drawn)
Reported Value: 31.9 µM
--
Molecule: COC(=O)C1=C(C)NC(C)=C(C(=O)OCCN2CCN(C(c3ccccc3)c3ccccc3)CC2)C1c1cccc([N+](=O)[O-])c1 (stereo not drawn)
Reported Value: > 30 µM

Consider now this further molecule.
The measured AC50 that CCCCOc1ccc(C(=O)CCN2CCCCC2)cc1 showed for Melanocortin receptor 3 (Homo sapiens) is > 30 µM

* * *

# Tgt: Alpha-1A adrenergic receptor (Homo sapiens)
# Sequence (P35348 whole entry): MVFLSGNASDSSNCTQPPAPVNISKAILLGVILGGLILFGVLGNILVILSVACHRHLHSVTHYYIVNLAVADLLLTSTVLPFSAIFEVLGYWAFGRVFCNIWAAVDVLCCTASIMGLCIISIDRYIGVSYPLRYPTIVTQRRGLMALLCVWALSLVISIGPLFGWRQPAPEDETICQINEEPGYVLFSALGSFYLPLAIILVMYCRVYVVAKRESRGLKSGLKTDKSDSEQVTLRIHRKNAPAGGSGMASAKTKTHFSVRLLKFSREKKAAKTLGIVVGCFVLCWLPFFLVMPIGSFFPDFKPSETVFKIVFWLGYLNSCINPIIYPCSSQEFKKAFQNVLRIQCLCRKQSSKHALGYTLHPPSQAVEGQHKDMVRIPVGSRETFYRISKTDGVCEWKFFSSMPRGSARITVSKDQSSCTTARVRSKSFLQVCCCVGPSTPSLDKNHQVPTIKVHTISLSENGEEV
# Format: functional, cell-based
Measured Endpoint: AC50

Below are worked cases with known answers.
Compound: CCCCC(CC)CN1CN(CC(CC)CCCC)CC(C)(N)C1 (centres undefined)
Tgt: Alpha-1A adrenergic receptor (Homo sapiens)
Reported Value: > 30 µM
//
Compound: NNCCc1ccccc1
Tgt: Alpha-1A adrenergic receptor (Homo sapiens)
Reported Value: 11.5 µM
//
Compound: Clc1ccc(C(Cn2ccnc2)OCc2csc3c(Cl)cccc23)c(Cl)c1 (centres undefined)
Tgt: Alpha-1A adrenergic receptor (Homo sapiens)
Reported Value: 24.3 µM
//
Compound: CC(=O)[C@H]1CC[C@H]2[C@@H]3C=CC4=CC(=O)CC[C@@]4(C)[C@@H]3CC[C@]12C
Tgt: Alpha-1A adrenergic receptor (Homo sapiens)
Reported Value: > 30 µM
//
Compound: Cc1cc(C2CCCCC2)n(O)c(=O)c1
Tgt: Alpha-1A adrenergic receptor (Homo sapiens)
Reported Value: 23.1 µM

The measured AC50 that CCCSc1nc(N[C@@H]2C[C@H]2c2ccc(F)c(F)c2)c2nnn([C@@H]3C[C@H](OCCO)[C@@H](O)[C@H]3O)c2n1 showed for Alpha-1A adrenergic receptor (Homo sapiens) is > 30 µM

The measured AC50 that Nc1cccc2c1C(=O)N(C1CCC(=O)NC1=O)C2=O (centres undefined) [POMALIDOMIDE] showed for Alpha-1A adrenergic receptor (Homo sapiens) is > 30 µM

The measured AC50 that Cc1ccc(C)c(OCCCC(C)(C)C(=O)O)c1 showed for Alpha-1A adrenergic receptor (Homo sapiens) is > 30 µM

The measured AC50 that O=C(O)Cc1ccccc1Oc1ccc(Cl)cc1Cl showed for Alpha-1A adrenergic receptor (Homo sapiens) is > 30 µM
